Assay: Oral bioavailability in dog at 5 mg/kg
Type: ADME, organism-based, Canis lupus familiaris
Settings: in vivo
experimental-endpoint: bioavailability (%)
One number for each entry, in %.

IN: Give the measured bioavailability of N#Cc1cc(Cl)cc(Oc2c(Br)ccc(CNC(=O)c3[nH]c(N)nc3Cl)c2F)c1 .
OUT: 47

---

Tested on: Canis familiaris
Test: AUC (0 to infinity) in dog at 5 mg/kg, po
Format: ADME, organism-based, Canis lupus familiaris, Plasma
Set-up: time infinity, dose 5 mg/kg, route oral
Conditions: in vivo
experimental-endpoint: AUC (ng·h/mL)
Give bare numbers, in ng·h/mL.

IN: Give the measured AUC of N#Cc1cc(Cl)cc(Oc2c(Br)ccc(CNC(=O)c3[nH]c(N)nc3Cl)c2F)c1 .
OUT: 14300

---

Experiment: Oral bioavailability in Sprague-Dawley rat at 5 mg/kg
Type: ADME, organism-based
Conditions: in vivo
experimental-endpoint: bioavailability (%)
One number for each entry, in %.

IN: Give the measured bioavailability of N#Cc1cc(Cl)cc(Oc2c(Br)ccc(CNC(=O)c3[nH]c(N)nc3Cl)c2F)c1 .
OUT: 84

---

Test system: Cynomolgus monkey
Experiment: AUC (0 to infinity) in cynomolgus monkey at 5 mg/kg, po
Type: ADME, organism-based, Macaca fascicularis, Plasma
Set-up: time infinity, dose 5 mg/kg, route oral
Conditions: in vivo
experimental-endpoint: AUC (ng·h/mL)
Give bare numbers, in ng·h/mL.

IN: Give the measured AUC of N#Cc1cc(Cl)cc(Oc2c(Br)ccc(CNC(=O)c3[nH]c(N)nc3Cl)c2F)c1 .
OUT: 6460

---

Assay: Half life in Sprague-Dawley rat at 1 mg/kg, iv
Assay type: ADME, organism-based
Parameters: dose 1 mg/kg, route intravenous
Settings: in vivo
experimental-endpoint: half-life

IN: Give the measured half-life of N#Cc1cc(Cl)cc(Oc2c(Br)ccc(CNC(=O)c3[nH]c(N)nc3Cl)c2F)c1 .
OUT: 2.2 h

---

Test: Volume of distribution at steady state in cynomolgus monkey at 1 mg/kg, iv
Type: ADME, organism-based, Macaca fascicularis
Set-up: dose 1 mg/kg, route intravenous
Settings: in vivo, read-out: Vdss
experimental-endpoint: Vd (L/kg)
Give bare numbers, in L/kg.

IN: Give the measured Vd of N#Cc1cc(Cl)cc(Oc2c(Br)ccc(CNC(=O)c3[nH]c(N)nc3Cl)c2F)c1 .
OUT: 1.8

---

Test: Volume of distribution at steady state in mouse at 1 mg/kg, iv
Type: ADME, organism-based
Parameters: dose 1 mg/kg, route intravenous
Details: in vivo, read-out: Vdss
experimental-endpoint: Vd (L/kg)
Answers are plain numbers, in L/kg.

IN: Give the measured Vd of N#Cc1cc(Cl)cc(Oc2c(Br)ccc(CNC(=O)c3[nH]c(N)nc3Cl)c2F)c1 .
OUT: 2.1

---

Assay: Dissociation constant, pKa of the compound
Type: physicochemical
experimental-endpoint: pKa
Give bare numbers.

IN: Give the measured pKa of N#Cc1cc(Cl)cc(Oc2c(Cl)ccc(CNC(=O)c3[nH]cnc3Cl)c2F)c1 .
OUT: 8.9

---

System: Human immunodeficiency virus 1
Assay: Antiviral activity against NNRTI-resistant HIV1 harboring reverse transcriptase Y188L mutant infected in human MT4 cells assessed as inhibition of viral replication after 72 hrs by HeLa-CD4-LTR-beta-gal assay
Assay type: functional, organism-based
Conditions: Human immunodeficiency virus 1, MT4, 72 h
experimental-endpoint: EC50 (µM)
One number for each entry, in µM.

item-smiles	result-unit	value-observed
N#Cc1cc(Cl)cc(Oc2c(Br)ccc(CNC(=O)c3[nH]c(N)nc3Cl)c2F)c1	µM	0.0005

State the recorded EC50 for every item in the following list.
1. N#Cc1cc(Cl)cc(Oc2c(Cl)ccc(CNC(=O)c3[nH]cnc3Br)c2F)c1
2. Cc1cc(C#N)cc(C)c1Oc1nc(Nc2ccc(C#N)cc2)nc(N)c1Br
3. CCCc1nc(Cl)c(C(=O)NCc2ccc(Cl)c(Oc3cc(Cl)cc(C#N)c3)c2F)[nH]1
4. N#Cc1cc(Cl)cc(Oc2c(Cl)ccc(CNC(=O)c3[nH]c(N)nc3Cl)c2F)c1

OUT:
0.0071
0.0009
0.24
0.0009

---

Test system: Human immunodeficiency virus 1
Experiment: Antiviral activity against NNRTI-resistant HIV1 harboring reverse transcriptase Y188L mutant infected in human MT4 cells assessed as inhibition of viral replication after 72 hrs by HeLa-CD4-LTR-beta-gal assay
Format: functional, organism-based
Conditions: Human immunodeficiency virus 1, MT4, 72 h
Can you tell me pEC50 for the items I'm about to list?
Answers are plain numbers, as −log10 of the molar value.

item-smiles	value-observed
N#Cc1cc(Cl)cc(Oc2c(Cl)ccc(CNC(=O)c3[nH]cnc3Cl)c2F)c1	8.25
N#Cc1cc(Cl)cc(Oc2c(Cl)ccc(CNC(=O)c3[nH]cnc3C(F)(F)F)c2F)c1	6.49
CCc1nc(Cl)c(C(=O)NCc2ccc(Cl)c(Oc3cc(Cl)cc(C#N)c3)c2F)[nH]1	7.12
N#Cc1cc(Cl)cc(Oc2c(Cl)ccc(CNC(=O)c3[nH]c(CO)nc3Cl)c2F)c1	7.62
Cc1nc(Cl)c(C(=O)NCc2ccc(Cl)c(Oc3cc(Cl)cc(C#N)c3)c2F)[nH]1	7.96

State the recorded pEC50 for every item in the following list.
1. Cc1cc(/C=C/C#N)cc(C)c1Nc1ccnc(Nc2ccc(C#N)cc2)n1
2. O=C1Nc2ccc(Cl)cc2[C@@](C#CC2CC2)(C(F)(F)F)O1
3. Cc1cc(S(N)(=O)=O)ccc1NC(=O)COc1ccc(Cl)cc1C(=O)c1cc(Cl)cc(C#N)c1

OUT:
1: 8.43; 2: 6.80; 3: 7.74
